The values you see were collected from patent US6399568B1.

Test system: liver cancer MH134 cell line
Test: Cell proliferation inhibition (72 hours)
Assay type: cell-based, mouse
Conditions: read-out: 50% proliferation inhibiting concentration MH134 (nM) mean
From the text: In order to verify the action of the cyclic tetrapeptide derivative according to the present invention in inhibiting cell proliferation in cancerized cells, the action on the proliferation of the aforementioned B16/BL6 cells was investigated. The evaluation of cell proliferation rates was done utilizing a commercially available measuring kit, specifically, from Promega under the trade name CellTiter 96 Aqueous Non-Radioactive Proliferation Assay Kit. […]
Non-standard residues stand in square brackets, D forms with d. Residues, ends and D or L forms follow the SMILES beside them. *: point of attachment. Asu = N[C@@H](CCCCCC(=O)O)C(=O)O; NHOH = ON*
Assign IC50 to each entry below.
Report as a plain number; the unit nM is understood.

[ask] Query: IC50; subject: CC(C)C[C@@H]1NC(=O)[C@@H](Cc2ccccc2)NC(=O)[C@H](CCCCCC(=O)NO)NC(=O)[C@@H]2CCCN2C1=O [HDA-28, cyclo(-L-Asu(NHOH)-D-Phe-L-Leu-L-Pro-)] (cyclo([Asu](NHOH)[dF]LP))
[reply] 4830

[ask] Also, C[C@@H]1NC(=O)[C@H]2CCCN2C(=O)[C@H](CCCCCC(=O)NO)NC(=O)[C@@H](C)NC1=O [HDA-13, cyclo(-L-Asu(NHOH)-D-Pro-L-Ala-D-Ala-)] (cyclo(A[dA][Asu](NHOH)[dP])) please.
[reply] 7920

---

molecular target: Mouse histone deacetylase; assay type: biochemical; settings: enzyme from FM3A cells; [3H]acetyl histone; 37° C. 10 minutes
Non-standard residues stand in square brackets, D forms with d. Residues, ends and D or L forms follow the SMILES beside them. *: point of attachment. Asu = N[C@@H](CCCCCC(=O)O)C(=O)O; NHOH = ON*
Assign pIC50 to each entry below.
On this scale, pIC50 is minus log10 of a concentration expressed in M (mol/L).

[ask] Query: pIC50; subject: CC(=O)NCCCC[C@@H]1NC(=O)[C@H]2CCCN2C(=O)[C@H](Cc2ccccc2)NC(=O)[C@H](Cc2ccccc2)NC1=O [HDA-6, cyclo(-L-Lys(Ac)-L-Phe-L-Phe-D-Pro-)] (cyclo(FF[dP]K(Ac)))
[reply] 4.56

[ask] Also, O=C(CCCC[C@@H]1NC(=O)[C@H]2CCCN2C(=O)[C@H](Cc2ccccc2)NC(=O)[C@H](Cc2ccccc2)NC1=O)NO [HDA-18, cyclo(-Api(NHOH)-Phe-Phe-D-Pro-)] please.
[reply] 6.41

[ask] Also, CC[C@H](C)[C@@H]1NC(=O)[C@@H](Cc2ccc(OC)cc2)NC(=O)[C@H](CCCCCC(=O)NO)NC(=O)[C@H]2CCCN2C1=O [HDA-31] (cyclo([Asu](NHOH)[dY](Me)I[dP])) please.
[reply] 8.68

[ask] Also, O=C(CCCCCC[C@@H]1NC(=O)[C@H]2CCCN2C(=O)[C@H](Cc2ccccc2)NC(=O)[C@H](Cc2ccccc2)NC1=O)NO [HDA-17, cyclo(-Aaz(NHOH)-Phe-Phe-D-Pro-)] please.
[reply] 7.70

---

tested on: leukemia L1210 cell line; assay: Cell proliferation inhibition (72 hours); assay type: cell-based, mouse; details: read-out: 50% proliferation inhibiting concentration L1210 (nM) mean
Non-standard residues stand in square brackets, D forms with d. Residues, ends and D or L forms follow the SMILES beside them. ξ: configuration not given here. *: point of attachment. Asu = N[C@@H](CCCCCC(=O)O)C(=O)O; ξPip = O=C(O)C1CCCCN1; Aib = CC(C)(N)C(=O)O; NHOH = ON*
Could you mark each record met if its IC50 falls strictly under 200 nM, and not met if it equals or exceeds it?

[ask] API: query returns whether the compound falls strictly under 200 nM in IC50. Query: O=C(CCCCC[C@@H]1NC(=O)[C@H]2CCCN2C(=O)[C@H](Cc2ccccc2)NC(=O)[C@H](Cc2ccccc2)NC1=O)NO [HDA-5, cyclo(-Asu(NHOH)-Phe-Phe-D-Pro-)] (cyclo([Asu](NHOH)FF[dP]))
[reply] not met

[ask] Also, CC(/C=C/C(=O)NO)=C\[C@@H](C)C(=O)c1ccc(N(C)C)cc1 [Trichostatin A, trichostatin A, reference compound] please.
[reply] met

[ask] Also, C[C@@H]1NC(=O)[C@H]2CCCN2C(=O)[C@H](CCCCCC(=O)NO)NC(=O)[C@@H](C)NC1=O [HDA-13, cyclo(-L-Asu(NHOH)-D-Pro-L-Ala-D-Ala-)] (cyclo(A[dA][Asu](NHOH)[dP])) please.
[reply] not met

[ask] Also, O=C(CCCCCC[C@@H]1NC(=O)[C@H]2CCCN2C(=O)[C@H](Cc2ccccc2)NC(=O)[C@H](Cc2ccccc2)NC1=O)NO [HDA-17, cyclo(-Aaz(NHOH)-Phe-Phe-D-Pro-)] please.
[reply] not met

[ask] Also, CC[C@H](C)[C@@H]1NC(=O)[C@@H](Cc2ccc(OC)cc2)NC(=O)[C@H](CCCCCC(=O)NO)NC(=O)[C@H]2CCCN2C1=O [HDA-31] (cyclo([Asu](NHOH)[dY](Me)I[dP])) please.
[reply] met

[ask] Also, CC(C)C[C@@H]1NC(=O)[C@@H](Cc2ccccc2)NC(=O)[C@H](CCCCCC(=O)NO)NC(=O)C2CCCCN2C1=O (stereo partly drawn) [HDA-12, cyclo(-Asu(NHOH)-D-Phe-Leu-Pip-)] (cyclo([Asu](NHOH)[dF]L[ξPip])) please.
[reply] met

[ask] Also, CC(C)C[C@@H]1NC(=O)[C@@H](Cc2ccccc2)NC(=O)[C@H](CCCCCC(=O)NO)NC(=O)[C@@H]2CCCN2C1=O [HDA-28, cyclo(-L-Asu(NHOH)-D-Phe-L-Leu-L-Pro-)] (cyclo([Asu](NHOH)[dF]LP)) please.
[reply] not met

[ask] Also, O=C(CCCCC[C@@H]1NC(=O)[C@H]2CCCN2C(=O)[C@H](Cc2ccccc2)NC(=O)[C@@H](Cc2ccccc2)NC1=O)NO [HDA-27, cyclo(-L-Asu(NHOH)-D-Phe-L-Phe-D-Pro-)] (cyclo([Asu](NHOH)[dF]F[dP])) please.
[reply] met

[ask] Also, CC(C)C[C@@H]1NC(=O)[C@@H](Cc2ccccc2)NC(=O)[C@H](CCCCCC(=O)NO)NC(=O)[C@H]2CCCN2C1=O [HDA-29, cyclo(-L-Asu(NHOH)-D-Phe-L-Leu-D-Pro-)] (cyclo([Asu](NHOH)[dF]L[dP])) please.
[reply] met

[ask] Also, CC1(C)NC(=O)[C@H](CCCCCC(=O)NO)NC(=O)[C@H]2CCCN2C(=O)[C@H](Cc2ccccc2)NC1=O [HDA-15, cyclo(-Asu(NHOH)-Aib-Phe-D-Pro-)] (cyclo([Aib]F[dP][Asu](NHOH))) please.
[reply] met

[ask] Also, O=C(CCCC[C@@H]1NC(=O)[C@H]2CCCN2C(=O)[C@H](Cc2ccccc2)NC(=O)[C@H](Cc2ccccc2)NC1=O)NO [HDA-18, cyclo(-Api(NHOH)-Phe-Phe-D-Pro-)] please.
[reply] not met

---

Target: histone deacetylase
Experiment: Histone deacetylase enzyme inhibiting activity, synthetic peptide substrate
Conditions: enzyme from B16/BL6 cells; [3H]acetylated histone H4 peptide; 37° C. 3 hours
Method: The preparation of histone deacetylase was performed essentially according to the method of Yoshida et al. (J. Biol. Chem., 265,17174-17179, 1990). The enzyme to be used was partially purified from B16/BL6 cells. The cells were suspended in HDA buffer (15 mM potassium phosphate, 5% glycerol, 0.2 mM EDTA, […], pH 7.5), homogenized and centrifuged (2500×g, 10 min) to collect the nuclei, which in turn were homogenized in the same buffer containing 1 M (NH4)2SO4. […]
Non-standard residues stand in square brackets, D forms with d. Residues, ends and D or L forms follow the SMILES beside them. *: point of attachment. Asu = N[C@@H](CCCCCC(=O)O)C(=O)O; NHOH = ON*
propertyMeasured: pIC50
On this scale, pIC50 is minus log10 of a concentration expressed in M (mol/L).

[ask] Query: pIC50; subject: O=C(CCCCC[C@@H]1NC(=O)[C@H]2CCCN2C(=O)[C@H](Cc2ccccc2)NC(=O)[C@@H](Cc2ccccc2)NC1=O)NO [HDA-27, cyclo(-L-Asu(NHOH)-D-Phe-L-Phe-D-Pro-)] (cyclo([Asu](NHOH)[dF]F[dP]))
[reply] 8.46

[ask] Also, CCC(C)[C@@H]1NC(=O)[C@@H](Cc2ccc(OC)cc2)NC(=O)[C@H](CCCCCCC(=O)NO)NC(=O)[C@H]2CCCN2C1=O (some centres unmarked) please.
[reply] 7.47

[ask] Also, O=C(CCCCC[C@@H]1NC(=O)[C@@H]2CCCN2C(=O)[C@H](Cc2ccccc2)NC(=O)[C@@H](Cc2ccccc2)NC1=O)NO [HDA-38, cyclo(-L-Asu(NHOH)-D-Phe-L-Phe-L-Pro-)] (cyclo([Asu](NHOH)[dF]FP)) please.
[reply] 8.27

[ask] Also, O=C(CCCCCC[C@@H]1NC(=O)[C@H]2CCCN2C(=O)[C@H](Cc2ccccc2)NC(=O)[C@H](Cc2ccccc2)NC1=O)NO [HDA-17, cyclo(-Aaz(NHOH)-Phe-Phe-D-Pro-)] please.
[reply] 7.61

[ask] Also, O=C(CCCC[C@@H]1NC(=O)[C@H]2CCCN2C(=O)[C@H](Cc2ccccc2)NC(=O)[C@H](Cc2ccccc2)NC1=O)NO [HDA-18, cyclo(-Api(NHOH)-Phe-Phe-D-Pro-)] please.
[reply] 6.82
